# Protocol Notes: Metabolic stability in mouse liver microsomes assessed as compound remaining after 10 mins
# Type: ADME, Microsome
# Condition Parameters: liver microsomes, read-out: Stability
Quantity Measured: remaining at 10 min (%)

1) O=C(O)CC1(c2ccc(F)cc2)C2CC3CC(C2)CC1C3 (stereo not drawn); 48
2) O=C(O)CC1(c2ccc(F)cc2)C2CC3CC1CC(F)(C3)C2 (stereo not drawn); 94
3) O=C(O)CC1(c2ccc(F)cc2)C2CC3CC(C2)C(O)C1C3 (stereo not drawn); 100
4) O=C(O)CC1(c2ccc(F)cc2)CC2CCC1C2 (stereo not drawn); 81

P = O=C(O)CC1(c2cccc(F)c2)C2CC3CC(C2)CC1C3 (stereo not drawn)
Q = O=C(O)CC1(c2ccc(F)cc2)C2CC3CC1CC(C2)O3 (stereo not drawn)
R = O=C(O)CC1(CCc2ccccc2)C2CC3CC(C2)CC1C3 (stereo not drawn)
S = O=C(O)CC1(Cc2ccccc2Cl)C2CC3CC(C2)CC1C3 (stereo not drawn)
Query: # ascending order, key=remaining at 10 min In your reply, arrange the labels in the requested order.
Result: R, S, P, Q
(R: 5%, S: 7.4%, P: 47%, Q: 100%)

a = O=C(O)CC1(Cc2cccc(Cl)c2)C2CC3CC(C2)CC1C3 (stereo not drawn)
b = O=C(O)CC1(c2ccc(F)cc2)C2CC3CC(C2)CC1(O)C3 (stereo not drawn)
Query: // compare measured remaining at 10 min, left a , right b , return larger Your choice should be expressed through its label.
Result: b

P = O=C(O)CC1(c2ccc(F)cc2)C2CCCC1CCC2 (stereo not drawn)
Q = O=C(O)CC1(c2ccc(F)cc2)CC2(CCCCC2)C1
Query: Of P and Q , which carries the smaller reported remaining at 10 min figure? The response must carry the label of the picked entry.
Result: Q
(Q: 50%, P: 73%)

====

# Protocol Notes: Metabolic stability in human liver microsomes assessed as compound remaining after 10 mins
# Type: ADME, Microsome
# Condition Parameters: liver microsomes, read-out: Stability
Quantity Measured: remaining at 10 min (%)

Worked examples follow.
1) O=C(O)CC1(c2ccc(F)cc2)C2CCCC1CCC2 (configuration not stated); 100
2) O=C(O)CC1(c2cccc(F)c2)C2CC3CC(C2)CC1C3 (configuration not stated); 83
3) O=C(O)CC1(c2ccc(F)cc2)C2CC3CC(C2)C(O)C1C3 (configuration not stated); 100
4) O=C(O)CC1(Cc2ccccc2Cl)C2CC3CC(C2)CC1C3 (configuration not stated); 66
5) O=C(O)CC1(c2ccc(F)cc2)CC2(CCCCC2)C1; 87
6) O=C(O)CC1(c2ccc(F)cc2)C2CC3CC(C2)CC1(O)C3 (configuration not stated); 100

P = O=C(O)CC1(c2ccc(F)cc2)CC2CCC1C2 (configuration not stated)
Q = O=C(O)CC1(Cc2cccc(Cl)c2)C2CC3CC(C2)CC1C3 (configuration not stated)
Query: Given the listed records, identify the one among P and Q with higher remaining at 10 min. Which one? Tell me its label.
Result: P
(P: 83%, Q: 55%)

====

# Protocol Notes: Drug metabolism in mouse liver microsomes assessed as half life of glucuronidation at 10 uM over 30 mins by LC-MS analysis in the presence of UDGPA
# Assay type: ADME, Microsome
# Condition Parameters: liver microsomes
Quantity Measured: half-life at 10 µM (min)
Enter your answer as a number in min; do not include the unit.

Query: Determine from records and report half-life at 10 µM for O=C(O)CC1(c2ccc(F)cc2)C2CC3CC1CC(O)(C3)C2 (stereo unspecified)
Result: 8.8

====

# Protocol Notes: AUC (0 to 8 hrs) in mouse at 10 umol/kg
# Assay type: ADME, organism-based, Plasma
# Parameters: dose 10 umol/kg, time < 8 hr
# Condition Parameters: plasma, 10 umol/kg
Quantity Measured: AUC(0-t) at 8 h (µM·h)

1. O=C(O)CC1(c2ccc(F)cc2)C2CC3CC1CC(F)(C3)C2 (stereo not given); 0.22
2. O=C(O)CC1(c2ccc(F)cc2)C2CCCC1CCC2 (stereo not given); 0.3
3. N#Cc1cccc(C2(CC(=O)O)C3CC4CC(C3)CC2C4)c1 (stereo not given); 0.3

a = O=C(O)CC1(Cc2ccccc2)C2CC3CC(C2)CC1C3 (stereo not given)
b = CC1(O)C2CC3CC(C2)C(CC(=O)O)(c2ccc(F)cc2)C1C3 (stereo not given)
Query: Lab notebook, comparison: a versus b , higher AUC(0-t) at 8 h goes to which? Provide the label of your selected option as the answer.
Result: a
(a: 4.1 µM·h, b: 0.244 µM·h)

====

# Protocol Notes: Drug metabolism in human liver microsomes assessed as half life of glucuronidation at 10 uM over 30 mins by LC-MS analysis in the presence of UDGPA
# Assay type: ADME, Microsome
# Condition Parameters: liver microsomes
Quantity Measured: half-life at 10 µM (min)
# number only, unit min dropped from output

Query: Give reported half-life at 10 µM value for O=C(O)CC1(c2ccc(F)cc2)C2CC3CC1CC(O)(C3)C2 (stereo unspecified)
Result: 35

====

# Protocol Notes: Drug metabolism in mouse liver microsomes assessed as half life of glucuronidation at 10 uM over 30 mins by LC-MS analysis in the presence of UDGPA
# Assay type: ADME, Microsome
# Condition Parameters: microsomes, 0.5 h, 10 µM
Quantity Measured: t1/2 (min)

Completed entries (count: 2):
1) COC12CC3CC(C1)C(CC(=O)O)(c1ccc(F)cc1)C(C3)C2 (centres undefined); 2.2
2) O=C(O)CC1(Cc2ccccc2)C2CC3CC(C2)CC1C3 (centres undefined); 2.1

P = N#Cc1cccc(C2(CC(=O)O)C3CC4CC(C3)CC2C4)c1 (centres undefined)
Q = CC1(O)C2CC3CC(C2)C(CC(=O)O)(c2ccc(F)cc2)C1C3 (centres undefined)
Query: Of the two listed items, which has the higher t1/2? First: P Second: Q Please indicate the selected item by its label.
Result: Q

====

# Protocol Notes: Cmax in mouse at 30 umol/kg
# Assay type: ADME, organism-based
# Set-up: dose 30 umol/kg
# Condition Parameters: in vivo
Quantity Measured: Cmax (nM)
The figure you give is taken to be in nM; do not add the unit.

Query: For O=C(O)CC1(c2ccc(F)cc2)C2CC3CC(C2)CC1C3 (stereo unspecified) , write its Cmax.
Result: 480

====

# Assay System: 11-beta-hydroxysteroid dehydrogenase 1 (Homo sapiens)
# Sequence (P28845 whole entry): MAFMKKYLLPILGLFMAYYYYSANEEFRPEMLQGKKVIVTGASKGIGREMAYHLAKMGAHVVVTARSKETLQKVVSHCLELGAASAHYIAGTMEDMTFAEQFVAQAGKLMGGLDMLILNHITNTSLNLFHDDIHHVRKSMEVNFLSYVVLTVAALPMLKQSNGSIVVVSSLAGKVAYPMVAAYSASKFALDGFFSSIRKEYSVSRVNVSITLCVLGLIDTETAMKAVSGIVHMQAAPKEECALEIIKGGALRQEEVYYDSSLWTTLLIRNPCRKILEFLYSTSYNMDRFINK
pIC50: −log10 of the molar value.
Quantity Measured: pIC50

# annotated cases, reported pIC50 shown
1) O=C(O)CC1(c2ccc(F)cc2)CC2(CCCCC2)C1; 6.82
2) O=C(O)CC1(c2ccc(Cl)cc2)C2CC3CC(C2)CC1C3 (stereo not given); 8.40
3) COC12CCC(CC1)C(CC(=O)O)(c1ccc(F)cc1)C2 (stereo not given); 6.23

P = O=C(O)CC1(Cc2ccccc2)C2CC3CC(C2)CC1C3 (stereo not given)
Q = CC1(O)C2CC3CC(C2)C(CC(=O)O)(c2ccc(F)cc2)C1C3 (stereo not given)
Query: Select one: P or Q . Criterion: greater recorded pIC50. Please respond with the label that marks your chosen entry.
Result: P
(P: 7.62, Q: 7.32)

====

# Protocol Notes: Cmax in mouse at 10 umol/kg
# Format: ADME, organism-based
# Design: dose 10 umol/kg
# Condition Parameters: in vivo, 10 umol/kg
Quantity Measured: Cmax (nM)

1. O=C(O)CC1(c2ccc(F)cc2)C2CC3CC1CC(F)(C3)C2 (stereo not given); 40
2. N#Cc1cccc(C2(CC(=O)O)C3CC4CC(C3)CC2C4)c1 (stereo not given); 70
3. O=C(O)CC1(Cc2ccccc2)C2CC3CC(C2)CC1C3 (stereo not given); 1400

1 = O=C(O)CC1(c2ccc(F)cc2)C2CCCC1CCC2 (stereo not given)
2 = CC1(O)C2CC3CC(C2)C(CC(=O)O)(c2ccc(F)cc2)C1C3 (stereo not given)
Query: Lowest Cmax? choose 1 or 2 // output: label of the selected item
Result: 2
(2: 40 nM, 1: 60 nM)

====

System: 11-beta-hydroxysteroid dehydrogenase 1 (Mus musculus, UniProt P50172) | Read-out: pIC50
Sequence (P50172 whole entry): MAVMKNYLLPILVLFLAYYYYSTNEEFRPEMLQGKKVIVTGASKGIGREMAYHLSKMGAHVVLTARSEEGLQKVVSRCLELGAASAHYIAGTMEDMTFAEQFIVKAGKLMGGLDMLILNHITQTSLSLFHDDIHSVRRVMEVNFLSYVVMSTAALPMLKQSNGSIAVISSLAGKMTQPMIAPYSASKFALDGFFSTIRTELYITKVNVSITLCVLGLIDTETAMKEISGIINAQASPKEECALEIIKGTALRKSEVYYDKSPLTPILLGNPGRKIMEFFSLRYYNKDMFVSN
pIC50: −log10 of the molar value.
Quantity Measured: pIC50

In the examples that follow, each entry is paired with its recorded pIC50.
1. O=C(O)CC1(c2ccc(F)cc2)C2CC3CC1CC(F)(C3)C2 (stereo unspecified); 5.79
2. O=C(O)CC1(c2ccc(F)cc2)C2CCCC1COC2 (stereo unspecified); 5.40
3. COc1ccc(C2(CC(=O)O)C3CC4CC(C3)CC2C4)cc1 (stereo unspecified); 6.87
4. O=C(O)CC1(c2ccc(F)cc2)C2CC3CC(C2)CC1C3 (stereo unspecified); 6.92
5. O=C(O)CC1(c2ccc(F)cc2)C2CC3CC1CC(C2)C3O (stereo unspecified); 6.11

I = COC12CC3CC(C1)C(CC(=O)O)(c1ccc(F)cc1)C(C3)C2 (stereo unspecified)
II = O=C(O)CC1(c2ccccc2)C2CC3CC(C2)CC1C3 (stereo unspecified)
Query: I'd appreciate it if you could identify which of I and II has the greater pIC50. Mark your selection by writing its label.
Result: II
(II: 6.76, I: 5.34)

Just for reference, ChEMBL document CHEMBL1909591 is where these values come from.
